# system_tested: T1, AFP p26 (human, UniProt P02771 381-609)
# T1 construct: The construct used is not described
# T1 sequence: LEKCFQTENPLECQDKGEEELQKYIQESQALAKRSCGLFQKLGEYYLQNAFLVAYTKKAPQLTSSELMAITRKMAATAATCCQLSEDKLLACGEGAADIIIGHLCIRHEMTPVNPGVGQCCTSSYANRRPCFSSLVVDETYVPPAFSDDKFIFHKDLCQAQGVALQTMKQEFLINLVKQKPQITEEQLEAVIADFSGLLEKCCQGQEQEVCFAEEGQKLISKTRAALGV
# experimental_details: phage ELISA, A450 target/A450 IgG1-Fc
Assign class by ELISA_avg: not lower than 20 ratio means t; lower than 20 ratio means f.

>>> print(df.to_string())
                                     binder  classification
0  SEQ ID NO 854 (designed binder) MGSWFVFKEDLAGIKFILEALGGSEAELAMFETDIAWFEYMLQYYKGKGNPEVEALRKEAAAIRDELQAYRHN               f
1  SEQ ID NO 742 (designed binder) MGSWHEFITRLEAIDQRLWALGGSEAELAAFEKEIAAFESELQAYKGKGNPEVEYLRFWAAEIRFILQAYRHN               f
2  SEQ ID NO 758 (designed binder) MGSWLEFYHRLNAIDSRLWALGGSEAELAAFEKEIAAFESELQAYKGKGNPEVESLRDHAAHIREWLQAYRHN               f
3  SEQ ID NO 853 (designed binder) MGSWLAFKEDLAHIKSILEALGGSEAELAEFEHDIAWFEYMLQYYKGKGNPEVEALRKEAAAIRDELQAYRHN               f
4  SEQ ID NO 835 (designed binder) MGSWKLFKYELAWIKWRLEALGGSEAELADFEASIAQFEKYLQTYKGKGNPEVEALRKEAAAIRDELQAYRHN               t
5  SEQ ID NO 767 (designed binder) MGSWIEFYWRLEAIDQRLWALGGSEAELAAFEKEIAAFESELQAYKGKGNPEVEDLRVHAAAIRWWLQAYRHN               f
6  SEQ ID NO 805 (designed binder) MGSWYEFYDRLDAIEDRLFALGGSEAELAAFEKEIAAFESELQAYKGKGNPEVESLRDQAAYIRTWLQAYRHN               t
7  SEQ ID NO 847 (designed binder) MGSWWVFKKTLAEIKWTLEALGGSEAELAYFEAEIAFFEFILQQYKGKGNPEVEALRKEAAAIRDELQAYRHN               f
8  SEQ ID NO 841 (designed binder) MGSWYFFKSRLAYIKVYLEALGGSEAELAGFEWEIAHFEEWLQRYKGKGNPEVEALRKEAAAIRDELQAYRHN               t
9  SEQ ID NO 787 (designed binder) MGSWSEFHTRLDAIDTRLWALGGSEAELAAFEKEIAAFESELQAYKGKGNPEVEDLRRHAAAIRFWLQAYRHN               t
